System: ulcer
Experiment: Anti-ulcer test (restraint and water immersion ulcer in rats, i.p.)
Assay type: in vivo, Male Wistar rats
Conditions: Rattus norvegicus, ip, read-out: % Inhibition of Ulcer
Description: The anti-ulcer and anti-edema activity of the compounds was evaluated in efficacy tests described below. Male Wistar rats weighing about 150 g on average were not fed for 24 hours before the test. Then a solution or suspension of a predetermined concentration of the test compound in physiological saline was administered to them intraperitoneally. […] The percent inhibition of ulcer was calculated by the following formula: [formula]
Would you mind labelling by inhibition in vivo at 50 mg/kg? At or over 70% is True, under is False.

>>> answer_label("CC(C)CC(=O)NC1CC(=O)OC1C(O)C(=O)NC(CC(C)C)C1Cc2cccc(O)c2C(=O)O1 (stereo not shown)")
"False"
>>> answer_label("CSC(C)(C)CC(=O)NC1CC(=O)OC1C(O)C(=O)NC(CC(C)C)C1Cc2cccc(O)c2C(=O)O1 (stereo not shown)")
"False"
>>> answer_label("CC(C)CC(NC(=O)C(O)C1OC(=O)CC1NC(=O)C1CC2C=CC1C2)C1Cc2cccc(O)c2C(=O)O1 (stereo not shown)")
"False"
>>> answer_label("CC(C)CC(NC(=NC(C)C)C(O)C(O)C(N)CC(=O)O)C1Cc2cccc(O)c2C(=O)O1 (stereo not shown)")
"True"
>>> answer_label("CC(C)CC(NC(=O)C(OC(=O)C(Cl)(Cl)Cl)C1OC(=O)CC1N)C1Cc2cccc(OC(=O)C(Cl)(Cl)Cl)c2C(=O)O1 (stereo not shown)")
"False"
>>> answer_label("CCNC1CC(=O)OC1C(OC(C)=O)C(=O)NC(CC(C)C)C1Cc2cccc(OC(C)=O)c2C(=O)O1 (stereo not shown)")
"False"
>>> answer_label("CC(C)CC(NC(=O)C(O)C1OC(=O)CC1N)C1Cc2cccc(OCCCBr)c2C(=O)O1 (stereo not shown)")
"True"
>>> answer_label("CC(C)CC(NC(=O)C(O)C1OC(=O)CC1NCCCCBr)C1Cc2cccc(O)c2C(=O)O1 (stereo not shown)")
"True"
>>> answer_label("CCCCC(=O)NC1CC(=O)OC1C(O)C(=O)NC(CC(C)C)C1Cc2cccc(O)c2C(=O)O1 (stereo not shown)")
"False"
>>> answer_label("CC(C)CC(NC(=O)C(O)C1OC(=O)CC1NC(=O)C1CC1)C1Cc2cccc(O)c2C(=O)O1 (stereo not shown)")
"False"

* * *

Test system: edema
Assay: Anti-edema test (carrageenan hindfoot edema in rats, p.o.)
Type: in vivo, Male Wistar rats
Details: Rattus norvegicus, po; 100 mg/kg p.o. (after 3 hours)
metric: inhibition in vivo at 100 mg/kg (%)

>>> readout_value("CCCCNC1CC(=O)OC1C(O)C(=O)NC(CC(C)C)C1Cc2cccc(OC)c2C(=O)O1 (stereo not drawn)")
45
>>> readout_value("CCCCCCCCCCCCCCCCCCNC1CC(=O)OC1C(O)C(=O)NC(CC(C)C)C1Cc2cccc(O)c2C(=O)O1 (stereo not drawn)")
35
>>> readout_value("CCCCCCCCCCCCNC1CC(=O)OC1C(O)C(=O)NC(CC(C)C)C1Cc2cccc(O)c2C(=O)O1 (stereo not drawn)")
43
>>> readout_value("CCCCNC1CC(=O)OC1C(O)C(=O)NC(CC(C)C)C1Cc2cccc(O)c2C(=O)O1 (stereo not drawn)")
42
>>> readout_value("CCNC1CC(=O)OC1C(O)C(=O)NC(CC(C)C)C1Cc2cccc(OCC)c2C(=O)O1 (stereo not drawn)")
37
>>> readout_value("CNC1CC(=O)OC1C(O)C(=O)NC(CC(C)C)C1Cc2cccc(O)c2C(=O)O1 (stereo not drawn)")
38
>>> readout_value("CCNC1CC(=O)OC1C(O)C(=O)NC(CC(C)C)C1Cc2cccc(OC)c2C(=O)O1 (stereo not drawn)")
37
>>> readout_value("CCCCCCCCNC1CC(=O)OC1C(O)C(=O)NC(CC(C)C)C1Cc2cccc(O)c2C(=O)O1 (stereo not drawn)")
43
>>> readout_value("CCCCCCNC1CC(=O)OC1C(O)C(=O)NC(CC(C)C)C1Cc2cccc(O)c2C(=O)O1 (stereo not drawn)")
51
>>> readout_value("CC(C)CNC1CC(=O)OC1C(O)C(=O)NC(CC(C)C)C1Cc2cccc(O)c2C(=O)O1 (stereo not drawn)")
47
>>> readout_value("CCCNC1CC(=O)OC1C(O)C(=O)NC(CC(C)C)C1Cc2cccc(O)c2C(=O)O1 (stereo not drawn)")
38
>>> readout_value("CC(C)CCNC1CC(=O)OC1C(O)C(=O)NC(CC(C)C)C1Cc2cccc(O)c2C(=O)O1 (stereo not drawn)")
47
>>> readout_value("CCCCCNC1CC(=O)OC1C(O)C(=O)NC(CC(C)C)C1Cc2cccc(O)c2C(=O)O1 (stereo not drawn)")
50
>>> readout_value("CCCCOc1cccc2c1C(=O)OC(C(CC(C)C)NC(=O)C(O)C1OC(=O)CC1NCC)C2 (stereo not drawn)")
38
>>> readout_value("CCCCNC1CC(=O)OC1C(O)C(=O)NC(CC(C)C)C1Cc2cccc(OCC)c2C(=O)O1 (stereo not drawn)")
48
>>> readout_value("CCCCCCCNC1CC(=O)OC1C(O)C(=O)NC(CC(C)C)C1Cc2cccc(O)c2C(=O)O1 (stereo not drawn)")
50
>>> readout_value("CCNC1CC(=O)OC1C(O)C(=O)NC(CC(C)C)C1Cc2cccc(O)c2C(=O)O1 (stereo not drawn)")
38
>>> readout_value("CCOc1cccc2c1C(=O)OC(C(CC(C)C)NC(=O)C(O)C1OC(=O)CC1NCCC(C)C)C2 (stereo not drawn)")
35
